Quick list: Bmax per entry.
subject.of.test: T1, Human serum albumin (HSA) (human, UniProt P02768 25-609)
T1 construct: also called human albumin; recombinant human albumin
experimental.protocol: ELISA on coated human albumin, anti-human Fc HRP, A650, one site-total binding fit
Reply numerically in A650, unit not repeated.

Recorded results for 4 binders are shown here.
4A01v3-5 (Fc fusion, also called Hz4A01v3-5; not shown: Human Fc carrier and its linker) VHH: EVQLVESGGGEVQPGGSLRLSCAASGFAFSTSGMVWYRQAPGKGLEWVSTISDDARIIRYAESVKGRFTISRDNAKNTLYLQMNSLRAEDTAVYYCATYRAGSRIGSYEDYYRGQGTLVTVKP; 1.39
4A01v3-4 (Fc fusion, also called Hz4A01v3-4; not shown: Human Fc carrier and its linker) VHH: EVQLVESGGGEVQPGGSLRLSCAASGFAFSTSGMSWVRQAPGKGLEWVSTISDDARIIRYAESVKGRFTISRDNAKNTLYLQMNSLRAEDTAVYYCATYRAGSRIGSYEDYYRGQGTLVTVKP; 1.43
4A01v3-1 (Fc fusion, not shown: a dimerising Fc or GST; small tags and cut ends, also called Hz4A01v3-1) VHH: EVQLVESGGGEVQPGGSLRLSCAASGFTFSTSGMVWVRQAPGKGLEWVSTISDDARIIRYAESVKGRFTISRDNAKNTLYLQMNSLRAEDTAVYYCATYRAGSRIGSYEDYYRGQGTLVTVKP; 1.32
4A01v1 (Fc fusion, also called Hz4A01v1; not shown: Human Fc carrier and its linker) VHH: EVQLVESGGGEVQPGGSLRLSCAASGFAFSTSGMVWVRQAPGKGLEWVSTISDDSRIIRYAESVKGRFTISRDNAKNTLYLQMNSLRAEDTAVYYCATYRAGSRIGSYEDYYRGQGTLVTVKP; 1.34

What measured Bmax goes with 4A01-NNT-hFc (Fc fusion, Monomeric sdAb-Fc fusion (Fc S364N, Y407N, K409T = NNT); also called 1m4A01; anti-albumin sdAb 4A01) QVQLQESGGGLVQPGGSLRLSCAASGFAFSTSGMVWVRQATGKGLEWVSTISDDSRIIRYADSVNGRFTISRDNAENTLYLLMNSLKPEDTAVYYCATYRAGSRIGSYEDYYRGQGTQVTVSSGGPSVFLFPPKPKDTLMISRTPEVTCVVVDVSHEDPEVKFNWYVDGVEVHNAKTKPREEQYNSTYRVVSVLTVLHQDWLNGKEYKCKVSNKALPAPIEKTISKAKGQPREPQVYTLPPSRDELTKNQVNLTCLVKGFYPSDIAVEWESNGQPENNYKTTPPVLDSDGSFFLNSTLTVDKSRWQQGNVFSCSVMHEALHNHYTQKSLSLSPG ?
1.34

What measured Bmax goes with 4A01v3-7 (Fc fusion, also called Hz4A01v3-7; not shown: Human Fc carrier and its linker) VHH: EVQLVESGGGEVQPGGSLRLSCAASGFAFSTSGMVWVRQAPGKGLEWVSTISDDARIIRYAESVKGRFTISRDNAKNTVYLQMNSLRAEDTAVYYCATYRAGSRIGSYEDYYRGQGTLVTVKP ?
1.4

What measured Bmax goes with 4A01v3-3 (Fc fusion, not shown: a dimerising Fc or GST; small tags and cut ends, also called Hz4A01v3-3) VHH: EVQLVESGGGEVQPGGSLRLSCAASGFAFSTSGMAWVRQAPGKGLEWVSTISDDARIIRYAESVKGRFTISRDNAKNTLYLQMNSLRAEDTAVYYCATYRAGSRIGSYEDYYRGQGTLVTVKP ?
1.36

What measured Bmax goes with 4A01v9 (Fc fusion, not shown: a dimerising Fc or GST; small tags and cut ends, also called Hz4A01v9) VHH: EVQLVESGGGEVQPGGSLRLSCAASGFAFSTSGMVWVRQAPGKGLEWVSTISDDTRIIRYAESVKGRFTISRDNAKNTLYLQMNSLRAEDTAVYYCATYRAGSRIGSYEDYYRGQGTLVTVKP ?
1.35
